Assignment: determine reported HEK-Blue activity, +100 nM BP, DF-1,000,000 for the given binders.
# measured on: T1, human IL-18 binding protein (human, UniProt O95998 31-194)
# T1 sequence (looked up): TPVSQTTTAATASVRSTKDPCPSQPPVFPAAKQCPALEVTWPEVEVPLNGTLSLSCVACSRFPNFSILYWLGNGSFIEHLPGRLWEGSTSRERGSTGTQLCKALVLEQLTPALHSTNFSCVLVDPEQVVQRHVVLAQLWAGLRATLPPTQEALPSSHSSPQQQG
# assay info: cell-based or functional assay; further: unit not given here
One number for each entry.

// worked examples, HEK-Blue activity, +100 nM BP, DF-1,000,000 included
yeast display IL-18 variant K53N, S55I (ligand) YFGKLESKLSVIRNLNDQVLFIDQGNRPLFEDMTDSDMRDNAPRTIFIISMYNDIQPRGMAVTISVKSEKISTLSSENKIISFKEMNPPDNIKDTKSDIIFFQRSVPGHDNKMQFESSSYEGYFLASEKERDLFKLILKKEDELGDRSIMFTVQNED; 0.09
yeast display IL-18 variant K53T, S55M, R58K (ligand) YFGKLESKLSVIRNLNDQVLFIDQGNRPLFEDMTDSDMRDNAPRTIFIISMYTDMQPKGMAVTISVKSEKISTLSSENKIISFKEMNPPDNIKDTKSDIIFFQRSVPGHDNKMQFESSSYEGYFLASEKERDLFKLILKKEDELGDRSIMFTVQNED; 0.17
yeast display IL-18 variant T34I, S36T, D40A, N41M, K53T, S55Y (ligand) YFGKLESKLSVIRNLNDQVLFIDQGNRPLFEDMIDTDMRAMAPRTIFIISMYTDYQPRGMAVTISVKSEKISTLSSENKIISFKEMNPPDNIKDTKSDIIFFQRSVPGHDNKMQFESSSYEGYFLASEKERDLFKLILKKEDELGDRSIMFTVQNED; 0.12
yeast display IL-18 variant K53Y, S55G (ligand) YFGKLESKLSVIRNLNDQVLFIDQGNRPLFEDMTDSDMRDNAPRTIFIISMYYDGQPRGMAVTISVKSEKISTLSSENKIISFKEMNPPDNIKDTKSDIIFFQRSVPGHDNKMQFESSSYEGYFLASEKERDLFKLILKKEDELGDRSIMFTVQNED; 0.13
yeast display IL-18 variant K53N, S55M, R104S, P107A (ligand) YFGKLESKLSVIRNLNDQVLFIDQGNRPLFEDMTDSDMRDNAPRTIFIISMYNDMQPRGMAVTISVKSEKISTLSSENKIISFKEMNPPDNIKDTKSDIIFFQSSVAGHDNKMQFESSSYEGYFLASEKERDLFKLILKKEDELGDRSIMFTVQNED; 0.11
yeast display IL-18 variant K53T, S55P (ligand) YFGKLESKLSVIRNLNDQVLFIDQGNRPLFEDMTDSDMRDNAPRTIFIISMYTDPQPRGMAVTISVKSEKISTLSSENKIISFKEMNPPDNIKDTKSDIIFFQRSVPGHDNKMQFESSSYEGYFLASEKERDLFKLILKKEDELGDRSIMFTVQNED; 0.21
yeast display IL-18 variant K53G, S55V (ligand) YFGKLESKLSVIRNLNDQVLFIDQGNRPLFEDMTDSDMRDNAPRTIFIISMYGDVQPRGMAVTISVKSEKISTLSSENKIISFKEMNPPDNIKDTKSDIIFFQRSVPGHDNKMQFESSSYEGYFLASEKERDLFKLILKKEDELGDRSIMFTVQNED; 0.1

What measured HEK-Blue activity, +100 nM BP, DF-1,000,000 goes with yeast display IL-18 variant K53H, S55V (ligand) YFGKLESKLSVIRNLNDQVLFIDQGNRPLFEDMTDSDMRDNAPRTIFIISMYHDVQPRGMAVTISVKSEKISTLSSENKIISFKEMNPPDNIKDTKSDIIFFQRSVPGHDNKMQFESSSYEGYFLASEKERDLFKLILKKEDELGDRSIMFTVQNED ?
0.14
